- measurement_target: full length human TREX1 (Homo sapiens)
- Construct: N-terminally His-Tev tagged full length human TREX1; made in house; host or cells: E. coli
- Sequence (Q9NSU2 whole entry): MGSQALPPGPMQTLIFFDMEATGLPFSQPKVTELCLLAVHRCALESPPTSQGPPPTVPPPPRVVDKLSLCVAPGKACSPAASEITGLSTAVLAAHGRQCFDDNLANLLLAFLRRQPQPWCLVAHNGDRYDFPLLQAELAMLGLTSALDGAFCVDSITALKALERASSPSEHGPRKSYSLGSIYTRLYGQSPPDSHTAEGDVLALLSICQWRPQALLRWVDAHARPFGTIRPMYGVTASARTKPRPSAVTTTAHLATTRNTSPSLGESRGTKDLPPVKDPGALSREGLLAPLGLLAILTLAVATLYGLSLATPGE
- protocol: hTREX1 Biochemical Assay (fluorescence, dsDNA substrate degradation)
- run_parameters: biochemical, read-out: hTREX1 IC50
pIC50: −log10 of the molar value.
This listing pairs compounds with measured pIC50.

[Q] Please look at this compound and report its pIC50: CCn1cc(C(c2cc(F)c(F)cc2Cl)C(C)c2nc(C(=O)Nc3cnoc3)c(O)c(=O)n2C)cn1 (single isomer, unassigned) [Example 72 D1E2]
[A] < 8.00

[Q] Please look at this compound and report its pIC50: CC(c1nc(C(=O)Nc2cnoc2)c(O)c(=O)n1C)C(c1cnn(CCOC(F)(F)F)c1)c1cc(F)ccc1C#N (single isomer, unassigned) [Example 101 D1E2]
[A] > 9.00

API: the following record is the query input.
[Q] Please look at this compound and report its pIC50: Cc1cnc(C(c2cc(F)ccc2Cl)C(C)c2nc(C(=O)Nc3cnoc3)c(O)c(=O)n2C)cn1 (single isomer, unassigned) [Example 117 D2E2]
[A] < 8.00

Data provenance is patent US20240246946A1.
